# System: B. levii
# Format: biochemical
# condition_label: strain 18-1-8; β-naphthylamine liberated after 60 minutes, 37° C.
# Protocol: The enzyme activity was measured by the chromogenic properties of N-CBz-glycyl-glycyl-L-arginine-β-naphthylamide which upon hydrolysis gives a visible color. The aminopeptidase activities listed in the table reflect the nanomoles of β-naphthylamine liberated after 60 minutes under the conditions described below. […]
Peptide text beside a SMILES is read from it. * marks the point of attachment. βNA = c1ccc2cc(N*)ccc2c1
measured_parameter: Aminopeptidase activity (nmol)

{"compound": "C[C@H](N)C(=O)N[C@@H](C)C(=O)N[C@@H](Cc1ccccc1)C(=O)Nc1ccc2ccccc2c1 [Ala-Ala-Phe] (H-Ala-Ala-Phe-βNA)", "target": "B. levii", "measured_parameter": "Aminopeptidase activity", "measured_value": 0}
{"compound": "CC(C)C[C@H](N)C(=O)NCC(=O)O [Leu-Gly, Leucyl-glycine] (H-Leu-Gly-OH)", "target": "B. levii", "measured_parameter": "Aminopeptidase activity", "measured_value": 51}
{"compound": "NC(=O)[C@@H](N)CCC(=O)O [α-Glu, α -glutamine]", "target": "B. levii", "measured_parameter": "Aminopeptidase activity", "measured_value": 2}
{"compound": "CC(C)C[C@H](NC(=O)[C@@H]1CCCN1C(=O)CN)C(=O)Nc1ccc2ccccc2c1 [Gly-Pro-Leu] (H-Gly-Pro-Leu-βNA)", "target": "B. levii", "measured_parameter": "Aminopeptidase activity", "measured_value": 0}
{"compound": "CSCCC(N)C(=O)Nc1ccc2ccccc2c1 (racemic)", "target": "B. levii", "measured_parameter": "Aminopeptidase activity", "measured_value": 1}
{"compound": "Cl.N=C(N)NCCC[C@H](NC(=O)CNC(=O)CNC(=O)OCc1ccccc1)C(=O)Nc1ccc2ccccc2c1 [N-CBz-Gly-Gly-Arg]", "target": "B. levii", "measured_parameter": "Aminopeptidase activity", "measured_value": 1}

====

Form field: Aminopeptidase activity (one value per entry).
# System: B. asaccharolyticus
# Type: biochemical
# condition_label: strain ATCC 18569; β-naphthylamine liberated after 60 minutes, 37° C.
Peptide text beside a SMILES is read from it. * marks the point of attachment. βNA = c1ccc2cc(N*)ccc2c1

{"compound": "C[C@H](N)C(=O)N[C@@H](C)C(=O)N[C@@H](Cc1ccccc1)C(=O)Nc1ccc2ccccc2c1 [Ala-Ala-Phe] (H-Ala-Ala-Phe-βNA)", "Aminopeptidase activity": "0 nmol"}
{"compound": "CC(C)C[C@H](N)C(=O)NCC(=O)O [Leu-Gly, Leucyl-glycine] (H-Leu-Gly-OH)", "Aminopeptidase activity": "25 nmol"}
{"compound": "Cl.N=C(N)NCCC[C@H](NC(=O)CNC(=O)CNC(=O)OCc1ccccc1)C(=O)Nc1ccc2ccccc2c1 [N-CBz-Gly-Gly-Arg]", "Aminopeptidase activity": "0 nmol"}
{"compound": "CSCCC(N)C(=O)Nc1ccc2ccccc2c1 (racemic)", "Aminopeptidase activity": "0 nmol"}
{"compound": "NC(=O)[C@@H](N)CCC(=O)O [α-Glu, α -glutamine]", "Aminopeptidase activity": "0 nmol"}
{"compound": "CC(C)C[C@H](NC(=O)[C@@H]1CCCN1C(=O)CN)C(=O)Nc1ccc2ccccc2c1 [Gly-Pro-Leu] (H-Gly-Pro-Leu-βNA)", "Aminopeptidase activity": "0 nmol"}

====

# System: "Anaerobic vibrio"
# Type: biochemical
Peptide text beside a SMILES is read from it.
Aminopeptidase activity by entry:
measured_parameter: Aminopeptidase activity

{"compound": "NCCCC[C@H](N)C(=O)N1CCC[C@H]1C(=O)O [Lys-Pro, Lysyl-proline] (H-Lys-Pro-OH)", "target": "\"Anaerobic vibrio\"", "measured_value": 3}
{"compound": "N=C(N)NCCC[C@H](NC(=O)CN)C(=O)O [Gly-Arg, Glycyl-arginine] (H-Gly-Arg-OH)", "target": "\"Anaerobic vibrio\"", "measured_value": 0}
{"compound": "NCC(=O)N1CCC[C@H]1C(=O)O [Gly-Pro, Glycyl-proline] (H-Gly-Pro-OH)", "target": "\"Anaerobic vibrio\"", "measured_value": 0}
{"compound": "N=C(N)NCCC[C@H](NC(=O)[C@@H](N)CCCNC(=N)N)C(=O)O [Arg-Arg, Arginyl-arginine] (H-Arg-Arg-OH)", "target": "\"Anaerobic vibrio\"", "measured_value": 0}
{"compound": "C[C@H](NC(=O)[C@@H](N)CCCCN)C(=O)O [Lys-Ala, Lysyl-alanine] (H-Lys-Ala-OH)", "target": "\"Anaerobic vibrio\"", "measured_value": 0}

====

# Test system: Haemophilus aphrophilus
# protocol: Aminopeptidase activity on β-naphthylamide substrates
# Format: biochemical
# condition_label: strain ATCC 13252; β-naphthylamine liberated after 60 minutes, 37° C.
Peptide text beside a SMILES is read from it. * marks the point of attachment. βNA = c1ccc2cc(N*)ccc2c1
The entries below come with measured Aminopeptidase activity values attached.

{"compound": "N=C(N)NCCC[C@H](NC(=O)[C@@H](N)CCCNC(=N)N)C(=O)O [Arg-Arg, Arginyl-arginine] (H-Arg-Arg-OH)", "unit_info": "nmol", "Aminopeptidase activity": 1}
{"compound": "CSCCC(N)C(=O)Nc1ccc2ccccc2c1 (racemic)", "unit_info": "nmol", "Aminopeptidase activity": 0}
{"compound": "CC(C)C[C@H](N)C(=O)NCC(=O)O [Leu-Gly, Leucyl-glycine] (H-Leu-Gly-OH)", "unit_info": "nmol", "Aminopeptidase activity": 0}
{"compound": "CC(C)C[C@H](NC(=O)[C@@H]1CCCN1C(=O)CN)C(=O)Nc1ccc2ccccc2c1 [Gly-Pro-Leu] (H-Gly-Pro-Leu-βNA)", "unit_info": "nmol", "Aminopeptidase activity": 0}
